targetEntity: MCR-1 (Homo sapiens, UniProt Q01726)
Construct: expressed in transfected cells; host or cells: HEK 293
Sequence (Q01726 whole entry): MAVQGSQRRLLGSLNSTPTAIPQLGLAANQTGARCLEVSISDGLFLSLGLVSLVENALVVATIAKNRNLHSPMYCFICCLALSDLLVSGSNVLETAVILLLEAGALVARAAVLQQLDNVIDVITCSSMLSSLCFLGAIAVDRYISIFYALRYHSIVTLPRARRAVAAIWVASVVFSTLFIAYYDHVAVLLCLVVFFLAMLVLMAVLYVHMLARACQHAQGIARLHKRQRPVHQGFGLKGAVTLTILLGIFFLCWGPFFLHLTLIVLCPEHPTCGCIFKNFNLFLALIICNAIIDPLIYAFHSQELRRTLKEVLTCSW
experimentalProtocol: Melanocortin receptor binding assay, competition with 125I-HP 467, HEK 293 cells expressing hMCR-1
assayContext: inhibition of binding of 125I-HP 467, HEK 293 cells expressing MCR-1; TRG 2414 library; read-out: MC-1 IC50
measure: IC50 (µM)
Express the result in µM but write the number alone.

[[record]]
compound = "NCC(CCCCN1Cc2ccccc2C(CNCc2ccccc2C(F)(F)F)C1c1cc(C(F)(F)F)cc(C(F)(F)F)c1)NCc1ccccc1 (stereo not shown)"
experimentalvalue = 56.9


Reported MCR-1 (Homo sapiens, UniProt Q01726) IC50 for item COc1cccc(CNCC2c3ccccc3CN(CCCCC(CN)NCc3ccccc3)C2c2ccc(Oc3ccccc3)cc2)c1 (stereo not shown) was 0.788

Simply: CC(C)Cc1ccc(C(C)CNC(CN)CCCCN2Cc3ccccc3C(CNC3CCCCCC3)C2c2ccc(Oc3ccccc3)cc2)cc1 (stereo not shown) , MCR-1 (Homo sapiens, UniProt Q01726), IC50 = 18.6

Field IC50 (MCR-1 (Homo sapiens, UniProt Q01726)), entry COc1ccc(CNCC2c3ccccc3CN(CCCCC(CN)NCCc3ccccc3)C2c2ccc(Cl)cc2Cl)cc1 (stereo not shown) : 3.56
